- target.of.assay: activated ERK2 (Homo sapiens (Human))
- procedure.text: Activated ERK2 kinase assay, ERK2 New conditions (AlphaScreen, ERKtide phosphorylation)
- Type: biochemical
- condition.notes: 0.25 nM ERK2, 200 nM ERKtide peptide, 35 μM ATP, 30 min preincubation
pIC50: −log10 of the molar value.
readout.name: pIC50

Example entries and their recorded answers appear below.
[
  {
    "molecule": "Cn1cc(-c2cnc(N)c(-c3ccc(C(=O)N[C@H](CO)c4ccccc4)c(F)c3)c2)c(C(F)(F)F)n1",
    "pIC50": 8.29
  },
  {
    "molecule": "Cn1nncc1-c1cnc(N)c(-c2ccc(C(=O)N[C@H](CO)c3cccc(F)c3)c(F)c2)c1",
    "pIC50": 8.72
  },
  {
    "molecule": "C[C@@H](NC(=O)c1ccc(-c2cc(C3CCN(C)C(=O)C3)cnc2N)cc1F)c1ccccc1 (some centres unmarked)",
    "pIC50": 7.12
  }
]

I = Nc1ncc(C2CCC(=O)NC2)cc1-c1ccc(C(=O)N[C@H](CO)c2cccc(Cl)c2)c(F)c1 (some centres unmarked)
II = Cn1nccc1-c1cnc(N)c(-c2ccc(C(=O)N[C@H](CO)c3cccc(S(C)(=O)=O)c3)c(F)c2)c1
III = Cc1noc(C)c1-c1cnc(N)c(-c2ccc(C(=O)N[C@H](CO)c3ccccc3)c(F)c2)n1
Request: List from greatest to least pIC50. List the labels according to the requested ordering.
Result: I, II, III
(I: 9.46, II: 9.05, III: 8.48)

1 = Cc1ccnc(CNC(=O)c2ccc(-c3cc(C4CCOCC4)cnc3N)cc2F)n1
2 = Cn1cc(-c2cnc(N)c(-c3ccc(C(=O)NCc4cccc(C(F)F)c4)c(F)c3)c2)cn1
Request: Compare pIC50: is it lower for 1 or for 2 ? Give the label of your selection.
Result: 1
(1: 5.87, 2: 8.57)

1 = Nc1ncc(C2CCOCC2)nc1-c1ccc(C(=O)N[C@H](CF)c2ccccc2)cc1
2 = C[C@@H](NC(=O)c1ccc(-c2cc(C3CCNC(=O)C3)cnc2N)cc1F)c1cccc(Cl)c1 (mixture of isomers)
3 = Nc1ncc(C2CCC3(CC2)OCCO3)nc1-c1ccc(C(=O)NCc2ccccc2)c(F)c1
4 = Cc1nn(C)c(C)c1-c1cnc(N)c(-c2ccc(C(=O)N[C@H](CO)c3cccc(Cl)c3)c(F)c2)c1
5 = Nc1ncc([C@H]2CC[C@H](O)CC2)nc1-c1ccc(C(=O)NCc2ccccc2)c(F)c1
Request: # ascending order, key=pIC50 I would appreciate it if you listed the labels in the requested order.
Result: 3, 1, 5, 2, 4

====

- target.of.assay: activated ERK2 (Homo sapiens (Human), UniProt P28482)
- Sequence (P28482 whole entry): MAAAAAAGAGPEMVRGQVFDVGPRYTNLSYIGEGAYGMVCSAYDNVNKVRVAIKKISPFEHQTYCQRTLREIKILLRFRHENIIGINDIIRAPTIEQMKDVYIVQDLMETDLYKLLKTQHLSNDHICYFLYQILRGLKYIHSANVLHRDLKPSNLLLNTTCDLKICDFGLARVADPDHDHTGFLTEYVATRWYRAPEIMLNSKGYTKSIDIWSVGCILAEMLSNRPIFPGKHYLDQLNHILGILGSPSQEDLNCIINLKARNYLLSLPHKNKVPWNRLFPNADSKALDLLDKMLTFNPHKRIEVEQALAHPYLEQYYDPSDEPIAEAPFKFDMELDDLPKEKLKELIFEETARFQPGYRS
- procedure.text: Activated ERK2 kinase assay, ERK2 New conditions (AlphaScreen, ERKtide phosphorylation)
- Format: biochemical
- condition.notes: 0.25 nM ERK2, 200 nM ERKtide peptide, 35 μM ATP, 30 min preincubation
readout.name: IC50 (nM)

[
  {
    "compound": "Nc1ncc(C2CCOCC2)nc1-c1ccc(C(=O)N[C@H](CO)c2ccccc2)cc1",
    "unit.tag": "nM",
    "value": 1.63
  },
  {
    "compound": "CN1C[C@H](c2cnc(N)c(-c3ccc(C(=O)N[C@H](CO)c4cccc(Cl)c4)c(F)c3)c2)CC1=O",
    "unit.tag": "nM",
    "value": 4.77
  },
  {
    "compound": "Cc1cnccc1-c1cnc(N)c(-c2ccc(C(=O)N[C@H](CO)c3ccccc3)c(F)c2)c1",
    "unit.tag": "nM",
    "value": 0.752
  },
  {
    "compound": "C[C@@H](NC(=O)c1ccc(-c2nc(C3CCCCC3)cnc2N)cc1F)c1cc(F)cc(S(C)(=O)=O)c1",
    "unit.tag": "nM",
    "value": 0.147
  }
]

1 = COC(=O)N1CCC(c2cnc(N)c(-c3ccc(C(=O)N[C@H](CO)c4ccccc4)c(F)c3)n2)CC1
2 = COC(=O)[C@@H]1C[C@H](c2cnc(N)c(-c3ccc(C(=O)N[C@H](CO)c4cccc(Cl)c4)c(F)c3)c2)CN1 [Example 221]
Request: // max by IC50 over [ 1 , 2 ] Field: selected label. Fill in the label of the entry you choose.
Result: 2
(2: 30.6 nM, 1: 3.61 nM)
